- Tested on: C. albicans wild-type, ΔCOS-1/ΔCOS-1, hemizygous and reconstituted strains
- assayOverview: Sensitivity of C. albicans COS-1 strains to antifungal drugs in liquid RPMI medium (NCCLS M27-T)
- Format: cell-based, Candida albicans
*1 amine or outer side, *2 acyl side, *3 side chain or, on linkers, in order; H or OH if unused. Where a SMILES comes first, the peptide text is derived from it. Bridges are numbered along the chain shown (N, C = ends). [ ]: non-standard residue; d: D form. The star is where a group is joined. Orn(4R-OH,5R-OH) = O=C([C@H](C[C@@H](O)[C@@H](O)N[*:3])N[*:1])[*:2]; hTyr(3S-OH,4S-OH) = N[C@H](C(=O)O)[C@H](O)[C@@H](O)c1ccc(O)cc1; Pro(3S-OH,4S-Me) = C[C@H]1CN[C@H](C(=O)O)[C@H]1O; Benzoyl(4-octyloxy) = CCCCCCCCOc1ccc(C(=O)*)cc1; Hyp = O=C(O)[C@@H]1C[C@@H](O)CN1
measuredMetric: Relative sensitivity of wild-type, ΔCOS-1/ΔCOS-1, hemizygous and reconstituted strains

INSERT INTO results (compound, result) VALUES
  ('C=CC1(C)OC(=O)N(c2cc(Cl)cc(Cl)c2)C1=O (stereo not shown)', 'equally sensitive'),
  ('OC(Cn1cncn1)(Cn1cncn1)c1ccc(F)cc1F', 'equally sensitive'),
  ('CCCCCCCCOc1ccc(C(=O)N[C@H]2C[C@@H](O)[C@@H](O)NC(=O)[C@@H]3[C@@H](O)[C@@H](C)CN3C(=O)[C@H]([C@@H](C)O)NC(=O)[C@H]([C@H](O)[C@@H](O)c3ccc(O)cc3)NC(=O)[C@@H]3C[C@@H](O)CN3C(=O)[C@H]([C@@H](C)O)NC2=O)cc1 [cilofungin] ({Benzoyl(4-octyloxy)}-[Orn(4R-OH,5R-OH)]T[Hyp][hTyr(3S-OH,4S-OH)]T[Pro(3S-OH,4S-Me)]; lactam 1-C)', 'equally sensitive'),
  ('Clc1ccc(COC(Cn2ccnc2)c2ccc(Cl)cc2Cl)c(Cl)c1 (stereo not shown)', 'equally sensitive'),
  ('CC(=O)N1CCN(c2ccc(OCC3COC(Cn4ccnc4)(c4ccc(Cl)cc4Cl)O3)cc2)CC1 (stereo not shown)', 'equally sensitive'),
  ('Nc1nc(=O)[nH]cc1F', 'equally sensitive'),
  ('CCCCNC(=O)n1c(NC(=O)OC)nc2ccccc21', 'equally sensitive');
